# assayProcedure: Inhibition of recombinant VIM-5 (unknown origin) expressed in Escherichia coli (DE3) cells using FC5 as substrate by microplate reader assay
observable: IC50 (nM)

Consider the reported IC50 for these compounds:
- compound: "CCCc1ccc(C(c2cccc(-n3cc(-c4cccc(N)c4)nn3)c2)P(=O)(O)O)cc1 (stereo not given)"
  measurement: 0.56
- compound: "O=P(O)(O)Cc1ccccc1-n1cc(-c2ccccc2)nn1"
  measurement: 1630
- compound: "Nc1cccc(-c2cn(-c3cccc(CP(=O)(O)O)c3)nn2)c1"
  measurement: 19
- compound: "Cc1ccc(C(c2cccc(-n3cc(-c4cccc(N)c4)nn3)c2)P(=O)(O)O)cc1 (stereo not given)"
  measurement: 1
- compound: "O=C(O)c1ccc(-n2cc(-c3ccccc3)nn2)cc1C(=O)O"
  measurement: 60400
- compound: "NCC(=O)Nc1cccc(-c2cn(-c3cccc(CP(=O)(O)O)c3)nn2)c1"
  measurement: 86
- compound: "O=P(O)(O)Cc1ccc(-n2cc(-c3cccc(Cl)c3)nn2)cc1"
  measurement: 2030
- compound: "Nc1cccc(-c2cn(-c3cccc(C(c4ccc(Br)cc4)P(=O)(O)O)c3)nn2)c1 (stereo not given)"
  measurement: 3
- compound: "O=[N+]([O-])c1ccc(Cn2cc(-c3cccc(B(O)O)c3)nn2)cc1"
  measurement: 81100
- compound: "O=C(O)c1cccc(-n2cc(-c3ccccc3)nn2)c1O"
  measurement: 59900

a = O=C(NCc1cn(-c2ccc(CP(=O)(O)O)cc2)nn1)C(F)(F)F
b = O=P(O)(O)Cc1cccc(-n2cc(-c3cccc(Br)c3)nn2)c1
c = O=P(O)(O)Cc1cccc(-n2cc(-c3ccccc3)nn2)c1
d = O=C(NCc1cn(-c2cccc(CP(=O)(O)O)c2)nn1)C(F)(F)F
# rank_down: sort by IC50, max first Give the labels in the order specified. a, c, d, b

1 = Cc1cccc(-c2cn(-c3ccccc3CP(=O)(O)O)nn2)c1
2 = O=C(CCn1cc(-c2cccc(B(O)O)c2)nn1)Nc1ccccc1
3 = Nc1ccc(-c2cn(-c3cccc(CP(=O)(O)O)c3)nn2)cc1
4 = OB(O)c1cccc(-c2cn(Cc3ccccc3)nn2)c1
5 = O=P(O)(O)Cc1cccc(-n2cc(-c3ccc(Cl)cc3)nn2)c1
Endpoint returns the given compounds ordered by ascending IC50. Give the labels in the order specified. 5, 3, 1, 2, 4
(5: 180 nM, 3: 280 nM, 1: 1890 nM, 2: 6360 nM, 4: 14600 nM)

I = NCc1cn(-c2cccc(CP(=O)(O)O)c2)nn1
II = NCc1cccc(-c2cn(-c3ccccc3CP(=O)(O)O)nn2)c1
Pick one, I or II : lowest reported IC50. Kindly state the label of the option you pick. II

P = CCCCc1cn(-c2ccccc2CP(=O)(O)O)nn1
Q = Cc1cccc(-c2cn(-c3ccc(CP(=O)(O)O)cc3)nn2)c1
R = Nc1cccc(-c2cn(-c3ccccc3CP(=O)(O)O)nn2)c1
S = O=C(O)c1cn(-c2cccc(C(=O)O)c2C(=O)O)nn1
# rank_down: sort by IC50, max first Give the labels in the order specified. S, P, Q, R
(S: 93600 nM, P: 32200 nM, Q: 1160 nM, R: 380 nM)

I = Cc1cccc(-c2cn(-c3cccc(C(=O)O)c3C(=O)O)nn2)c1
II = Nc1ccccc1-c1cn(-c2cccc(C(=O)O)c2C(=O)O)nn1
Thinking about recorded IC50 values, which is higher, I or II ? Kindly state the label of the option you pick. II

A = O=P(O)(O)Cc1ccccc1-n1cc(-c2cccc(Cl)c2)nn1
B = O=P(O)(O)Cc1cccc(-n2cc(-c3ccccc3F)nn2)c1
Thinking about recorded IC50 values, which is higher, A or B ? Kindly state the label of the option you pick. A
(A: 1490 nM, B: 100 nM)

a = COc1ccc(-c2cn(-c3cccc(CP(=O)(O)O)c3)nn2)cc1
b = O=P(O)(O)Cc1ccc(-n2cc(CNc3ccccc3)nn2)cc1
Pick one, a or b : lowest reported IC50. Kindly state the label of the option you pick. a
(a: 43 nM, b: 7430 nM)

Data credit: ChEMBL document CHEMBL5620345
